- System: MOLM14;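 further: after 48 h exposure read by CellTiter-Glo luminescence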
- Assay name: cell viability relative to vehicle control; higher = less cytotoxic
- Condition notes: 10 µM; SRSF2 genotype: SRSF2 P95H/wt
Counter-ions that a name gives are not always drawn.
Assay endpoint: cell viability (%)
Expressed in %, but write only the number.

Give the value of cell viability reported for the following: O=C(/C=C/c1ccc(O)cc1)C1=C(O)[C@](O)([C@@H]2O[C@H](CO)[C@@H](O)[C@H](O)[C@H]2O)C(O)=C(/C=C2/C(=O)C(C(=O)/C=C/c3ccc(O)cc3)=C(O)[C@@](O)([C@@H]3O[C@H](CO)[C@@H](O)[C@H](O)[C@H]3O)C2=O)C1=O [Safflower Yellow] 90.4

Give the value of cell viability reported for the following: NC(=O)c1ccc(OCCCN2CC3CCCC3C2)cc1 (configuration not stated) 100

Give the value of cell viability reported for the following: [I-].[K+] [Potassium iodide] 106

Give the value of cell viability reported for the following: CCN(CCO)CCCOc1ccc2c(Nc3cc(CC(=O)Nc4cccc(F)c4)[nH]n3)ncnc2c1 [Barasertib (AZD1152-HQPA)] 13.9

Give the value of cell viability reported for the following: CC(=O)Nc1cccc(-n2c(=O)n(C3CC3)c(=O)c3c(Nc4ccc(I)cc4F)n(C)c(=O)c(C)c32)c1 42.3

Give the value of cell viability reported for the following: COCCOC(=O)C1=C(C)NC(C)=C(C(=O)OC/C=C/c2ccccc2)C1c1cccc([N+](=O)[O-])c1 (configuration not stated) [Cilnidipine] 78.8

Give the value of cell viability reported for the following: CC(=O)OCC(=O)NCCCOc1cccc(CN2CCCCC2)c1 [Roxatidine acetate HCl] 101

Give the value of cell viability reported for the following: Cc1cc(C(O)=C2C(=O)C(=O)N(CCCN3CCOCC3)C2c2ccncc2)ccc1OCc1ccccc1 (configuration not stated) 107

Give the value of cell viability reported for the following: N/C(=N\N=C\c1ccc(Cl)cc1)N/N=C/c1ccc(Cl)cc1 [Robenidine Hydrochoride] 59.2

Give the value of cell viability reported for the following: O=C(NS(=O)(=O)c1ccc(Br)s1)c1ccc(Cl)cc1Cl 61.8

Give the value of cell viability reported for the following: Cn1cncc1[C@@](N)(c1ccc(Cl)cc1)c1ccc2c(c1)c(-c1cccc(Cl)c1)cc(=O)n2C [Tipifarnib (Zarnestra)] 29.9

Give the value of cell viability reported for the following: CN(C/C=C/C#CC(C)(C)C)Cc1cccc2ccccc12 [Terbinafine hydrochloride (Lamisil)] 86.8

Give the value of cell viability reported for the following: CC(C)(CO)c1cc2cc(NC(=O)C3(c4ccc5c(c4)OC(F)(F)O5)CC3)c(F)cc2n1C[C@@H](O)CO 91.5

Give the value of cell viability reported for the following: Cc1cc(O)c2c(c1)C(=O)c1cccc(O)c1C2=O [Chrysophanic acid (Chrysophanol)] 114

Give the value of cell viability reported for the following: N#CC(=Cc1ccc(O)c(O)c1)C(=O)NCc1ccccc1 [AG-490 (Tyrphostin B42)] 95.9

Give the value of cell viability reported for the following: CC[C@@]1(O)C(=O)OCc2c1cc1n(c2=O)Cc2cc3c(CN(C)C)c(O)ccc3nc2-1 [Topotecan HCl] 0.55

Give the value of cell viability reported for the following: C/C=C/C=C/C(=O)O [Sorbic acid] 99.3

Give the value of cell viability reported for the following: CCC(=O)O[C@]1(C(=O)SCF)[C@H](C)C[C@H]2[C@@H]3C[C@H](F)C4=CC(=O)C=C[C@]4(C)[C@@]3(F)[C@@H](O)C[C@@]21C [Fluticasone propionate (Flonase, Veramyst)] 85.3

Give the value of cell viability reported for the following: CC(C)[C@H](NC(=O)[C@H](CC(=O)O)NC(=O)[C@H](CCCCN)NC(=O)[C@@H](N)CCCN=C(N)N)C(=O)N[C@@H](Cc1ccc(O)cc1)C(=O)O [Thymopentin] 95.8

Give the value of cell viability reported for the following: CNC(=O)c1nn(C)c2c1C(C)(C)Cc1cnc(Nc3ccc(N4CCN(C)CC4)cc3)nc1-2 16

Give the value of cell viability reported for the following: CC1(C)CCCC2(C)C1CCC1(C)OC(=O)CC12 (configuration not stated) [Sclareolide (Norambreinolide)] 101

Give the value of cell viability reported for the following: CC(C)C[C@H](NC(=O)CNC(=O)c1cc(Cl)ccc1Cl)B1OC(=O)CC(CC(=O)O)(C(=O)O)O1 (some centres not stated) [Ixazomib Citrate (MLN9708)] 0.35

Give the value of cell viability reported for the following: CC(C)=CCc1cc2c(cc1O)oc(=O)c1c3ccc(O)cc3oc21 [Psoralidin] 115

Give the value of cell viability reported for the following: Cn1cc(C2=C(c3cccc(N)c3)C(=O)NC2=O)c2ccccc21 59.8

Give the value of cell viability reported for the following: CC(=O)Oc1c(C)c(C)c2c(c1C)CCC(C)(CCC[C@H](C)CCC[C@H](C)CCCC(C)C)O2 (some centres not stated) [Vitamin E Acetate] 103

Give the value of cell viability reported for the following: Cn1nnc2c(C(N)=O)ncn2c1=O [Temozolomide] 86

Give the value of cell viability reported for the following: CCCN(CCC)S(=O)(=O)c1ccc(C(=O)O)cc1 [Probenecid (Benemid)] 96.4

Give the value of cell viability reported for the following: Nc1nnc(-c2cccc(Cl)c2Cl)c(N)n1 [Lamotrigine] 102

Give the value of cell viability reported for the following: CN1c2cc(O)c(N=NC(N)=O)cc2CC1S(=O)(=O)O (configuration not stated) [Carbazochrome sodium sulfonate] 97

Give the value of cell viability reported for the following: CC[C@H](Nc1ncnc2[nH]cnc12)c1nc2cccc(F)c2c(=O)n1-c1ccccc1 57.3

Give the value of cell viability reported for the following: [F][Ti]([F])([F])[F] [Titanium tetrafluoride] 97.3

Give the value of cell viability reported for the following: Cc1ccc(/C=N/NC(=O)c2ccccc2Oc2ccccc2)o1 102

Data credit: the supplement of paper PMC10981050
